- tested-system: Fuc(a1-2)Gal(b1-4)GlcNAc
- test-method-notes: glycan array binding signal (z-score within array); higher = stronger binding
- run-conditions: glycan notation: IUPAC condensed, linker removed
The sample as a whole holds a higher share of the strongest signals than the screen did.
Here, each record is paired with measured glycan array binding signal (z-score) data.
metric: glycan array binding signal (z-score)

| binder | data-value |
| --- | --- |
| Pwp6 (Candida glabrata) (protein) MGSSHHHHHHSSGLVPRGSHMASANLPKLTNICQIPDNVKKTSGFKGEIRRIGLFPPGGDYTYLLKFPSTGSTASDTISLTTKPQLSTSGWFPSLFGHTYFIKADLLVYMVAYFVPTETGEYTFKLVNSDDAAVMYVGNPSAFPCGSIDTWPEPRKEDINVCDKISASTKLYMEKGLAYPVRLVWYNGGGDGQFNAQFIDPSGTTHTDWNGYVWQYDACTDCDYK | -0.848 |
| BC2L-A (Burkholderia cenocepacia), Q1BKJ8_BURCA (protein) ADSQTSSNRAGEFSIPPNTDFRAIFFANAAEQQHIKLFIGDSQEPAAYHKLTTRDGPREATLNSGNGKIRFEVSVNGKPSATDARLAPINGKKSDGSPFTVNFGIVVSEDGHDSDYNDGIVVLQWPIG | 0.167 |
| F17dG (Escherichia coli), Q47199 (protein) MTNFYKVFLAVFILVCCNISQAAVSFIGSTENDVGPSPGSYSRTHAMDNLPFVYNTGNNIGYQNANVWRISKGFCVGLDGKVDLPVVGSLDGQSIYGLTEEVGLLIWMGDTNYSRGTAMSGNSWENVFSGWCVGANTASTQGLSVRVTPVILKRNSSARYSVQKTSIGSIRMRPYNGSSAGSVQTTVNFSLNPFTLNDTVTSCRLLTPSAVNVSLAAISAGQLPSSGDEVVAGTTSLKLQCDAGVTVWATLTDATTPSNRSDILTLTGASTATGVGLRIYKNTDSTPLKFGPDSPVKGNENQWQLSTGTETSPSVRLYVKYVNTGEGINPGTVNGISTFTFSYQ | -0.185 |
| AFL (Aspergillus fumigatus), Q4WW81 (protein) STPGAQQVLFRTGIAAVNLTNHLRVYFQDVYGSIRESLYEGSWANGTEKNVIGNAKLGSPVAATSKELKHIRVYTLTEGNTLQEFAYDSGTGWYNGGLGGAKFQVAPYSRIAAVFLAGTDALQLRIYAQKPDNTIQEYMWNGDGWKEGTNLGGALPGTGIGATSFRYTDYNGPSIRIWFQTDDLKLVQRAYDPHKGWYPDLVTIFDRAPPRTAIAATSFGAGNSSIYMRIYFVNSDNTIWQVCWDHGKGYHDKGTITPVIQGSEVAIISWGSFANNGPDLRLYFQNGTYISAVSEWVWNRAHGSQLGRSALPPA | 2.94 |
| F17fG (Escherichia coli), Q9RH91 (protein) MTNFYKVFLAVFILVCCNISHAAVSFIGSTENDVGPSQGSYSSTHAMDNLPFVYNTGHNIGYQNANVWRISGGFCVGLDGKVDLPVVGSLDGQSIYGLTEEVGLLIWMGDTNYSRGTAMSGNSWENVFSGWCVGNYVSTQGLSVHVRPVILKRNSSAQYSVQKTSIGSIRMRPYNGSSAGSVQTTVNFSLNPFTLNDTVTSCRLLTPSAVNVSLAAISAGQLPSSGDEVVAGTTSLKLQCDAGVTVWATLTDATTPSNRSDILTLTGASTATGVGLRIYKNTDSTPLKFGPDSPVKGNENQWQLSTGTETSPSVRLYVKYVNTGEGINPGTVNGISTFTFSYQ | -0.322 |
